EXPERIMENTAL_SYSTEM: HIF-1α (Homo sapiens, UniProt Q16665)
Construct: endogenous in cells; host or cells: ARPE-19 (ATCC CRL-2302)
Sequence (Q16665 whole entry): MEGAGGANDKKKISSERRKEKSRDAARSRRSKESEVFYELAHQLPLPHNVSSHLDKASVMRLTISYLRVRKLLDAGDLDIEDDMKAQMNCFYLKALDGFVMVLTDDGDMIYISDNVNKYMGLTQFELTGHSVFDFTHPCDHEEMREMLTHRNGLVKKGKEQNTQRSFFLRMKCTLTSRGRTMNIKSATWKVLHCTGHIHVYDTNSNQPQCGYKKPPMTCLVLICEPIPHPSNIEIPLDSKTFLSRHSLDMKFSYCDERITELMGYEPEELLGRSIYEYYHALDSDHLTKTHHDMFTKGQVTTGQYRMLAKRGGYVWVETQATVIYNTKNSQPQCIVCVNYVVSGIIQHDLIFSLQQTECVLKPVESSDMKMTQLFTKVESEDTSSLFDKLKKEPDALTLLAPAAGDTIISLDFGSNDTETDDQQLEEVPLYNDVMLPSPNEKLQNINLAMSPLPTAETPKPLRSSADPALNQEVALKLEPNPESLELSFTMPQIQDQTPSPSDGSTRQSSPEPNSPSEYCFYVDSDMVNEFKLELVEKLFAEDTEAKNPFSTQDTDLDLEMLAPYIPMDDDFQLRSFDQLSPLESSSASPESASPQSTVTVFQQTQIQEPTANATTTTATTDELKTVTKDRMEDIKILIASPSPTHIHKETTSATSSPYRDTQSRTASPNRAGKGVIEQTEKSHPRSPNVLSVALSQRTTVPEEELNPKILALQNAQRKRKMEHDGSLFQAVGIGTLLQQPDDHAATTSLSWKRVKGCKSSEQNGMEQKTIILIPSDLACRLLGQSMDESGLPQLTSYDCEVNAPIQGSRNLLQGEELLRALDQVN
TEST_SUMMARY: Analysis of HIF-1α protein expression (Western blot) in ARPE-19 cells under mixed hypoxic condition
Format: cell-based
SETUP_CONDITIONS: mixed hypoxic condition (1% oxygen + CoCl2) for 1 hour, concentration range at which HIF-1α expression is reduced by 50% vs untreated control, read-out: IC50 HIF-1α Hypoxia (1 hour)
Counter-ions that a name gives are not always drawn.
compounds and their reported DC50

Sample records with DC50:
{"columns": ["COMPOUND", "DC50"],
 "data": [
  ["CN1CCC(c2nc3ncnc(C(=O)NCc4cc(F)cc(-c5cnn(C)c5)c4)c3[nH]2)C1 (stereo not shown)", "1000 to 10000 nM"],
  ["Cn1cc(-c2cc(F)cc(CNC(=O)c3ncnc4nc(C5CC6C(C5)C6(F)F)[nH]c34)c2)cn1 (stereo not shown)", "100 to 1000 nM"]
]}

Task item: Fill in reported DC50 for this entry: Cn1cc(-c2cc(F)cc(CNC(=O)c3ncnc4nc(C5CCN(C(=O)OCc6ccccc6)C5)[nH]c34)c2)cn1 (stereo not shown)
Reply: 100 to 1000 nM

Task item: Note down DC50 recorded for Cn1cc(-c2cc(F)cc(CNC(=O)c3ncnc4nc([C@H]5CCCN5)[nH]c34)c2)cn1 [Example 65, hydrochloride]
Reply: 1000 to 10000 nM

---

# maps each entry to its IC50
Tested on: VEGF
TEST_SUMMARY: Evaluation of VEGF protein secretion level (Human VEGF ELISA) in ARPE-19 cell medium under hypoxic conditions
Format: cell-based
SETUP_CONDITIONS: ARPE-19 cells; pretreated 2 hours, 24 hours hypoxic conditions; secreted VEGF in medium supernatant by ELISA; concentration range reducing VEGF by 50% vs untreated control; read-out: IC50 VEGF

Study these solved cases before continuing.
{"columns": ["MOLECULE", "ENDPOINT_VALUE"],
 "data": [
  ["O=C(NCc1cc(F)cc(-c2cnn(-c3ccc(F)cc3)c2)c1)c1ncnc2nc(C3CCCC3)[nH]c12", "100 to 1000 nM"],
  ["N#Cc1ccc(-n2cc(-c3cc(F)cc(CNC(=O)c4ncnc5nc(C6CCCC6)[nH]c45)c3)cn2)cc1", "< 100 nM"],
  ["O=C(NCc1cc(F)cc(-c2cnn(-c3ccc(F)cc3)c2)c1)c1ncnc2nc(C3CC(F)C3)[nH]c12 (single isomer, unassigned) [102(A)]", "> 10000 nM"],
  ["O=C(NCc1cc(F)cc(-c2ccsc2)c1)c1ncnc2nc(C3CCCC3)[nH]c12", "100 to 1000 nM"],
  ["Cn1cc(Nc2cc(F)cc(CNC(=O)c3ncnc4nc(C5CCC(F)(F)C5)[nH]c34)c2)cn1 (stereo not shown)", "100 to 1000 nM"],
  ["COc1cccc(Nc2cc(F)cc(CNC(=O)c3ncnc4nc(C5CCCC5)[nH]c34)c2)c1", "100 to 1000 nM"]
]}

// switching to the query molecule
Task item: Enter IC50 (test system VEGF) for Cn1cc(C(=O)Nc2cc(F)cc(CNC(=O)c3ncnc4nc(C5CCCC5)[nH]c34)c2)cn1
Reply: 1000 to 10000 nM
